tgt: recombinant human kappa (KOR) opioid receptor (Homo sapiens, UniProt P41145)
Sequence (P41145 whole entry): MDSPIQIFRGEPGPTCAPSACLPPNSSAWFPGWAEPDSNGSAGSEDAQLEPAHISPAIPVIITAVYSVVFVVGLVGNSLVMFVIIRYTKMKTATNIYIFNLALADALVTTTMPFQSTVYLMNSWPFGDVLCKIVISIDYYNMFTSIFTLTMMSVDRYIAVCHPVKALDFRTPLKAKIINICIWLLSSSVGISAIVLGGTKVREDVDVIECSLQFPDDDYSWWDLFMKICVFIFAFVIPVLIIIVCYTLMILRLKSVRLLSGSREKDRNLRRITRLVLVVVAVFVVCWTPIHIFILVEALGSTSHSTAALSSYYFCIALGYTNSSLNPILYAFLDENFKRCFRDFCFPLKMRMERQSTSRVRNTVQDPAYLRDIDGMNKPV
test: biochemical
pKi: −log10 of the molar value.
Please mark Satisfied if the recorded pKi is equal to or greater than 7, and Not satisfied if it falls below.

CN(C(=O)Cc1ccc(Cl)c(Cl)c1)[C@H](CN1CC[C@H](OCCOCC(=O)O)C1)c1ccccc1 :: Not satisfied
COCCOCCOCCOCCOCCOc1ccc([C@@H](CN2CCCC2)N(C)C(=O)Cc2ccc(Cl)c(Cl)c2)cc1.Cl :: Satisfied
COCCOCCOCCO[C@H]1CCN(C[C@H](c2ccc(C(F)(F)F)cc2)N(C)C(=O)Cc2ccc(Cl)c(Cl)c2)C1 :: Not satisfied
COCCOCCOCCO[C@H]1CCN(C[C@H](c2cccc(NS(C)(=O)=O)c2)N(C)C(=O)Cc2ccc(Cl)c(Cl)c2)C1 :: Not satisfied
COCCOCCOCCOCCOCCNC(=O)O[C@H]1CCN(C[C@H](c2ccccc2)N(C)C(=O)Cc2ccc(Cl)c(Cl)c2)C1.Cl :: Not satisfied
COCCOCCOCCOCCOCCOCC(=O)Nc1cccc([C@@H](CN2CCCC2)N(C)C(=O)C(c2ccccc2)c2ccccc2)c1 :: Not satisfied
CN(C(=O)C(c1ccccc1)c1ccccc1)[C@H](CN1CCCC1)c1cccc(N)c1 :: Satisfied
COCCOCCOCCOCCOCCN1CCN(C[C@H](c2ccccc2)N(C)C(=O)Cc2ccc(Cl)c(Cl)c2)CC1 :: Not satisfied
COCCOCCOCCOCCOCCO[C@H]1CCN(C[C@H](c2ccccc2)N(C)C(=O)CNc2ccccc2)C1 :: Not satisfied
CN(C(=O)Cc1ccc(Cl)c(Cl)c1)[C@H](CN1CCCC1)c1cccc(NS(=O)(=O)CCOCC(F)(F)F)c1.Cl :: Satisfied
CCCCOCCOCCOCCS(=O)(=O)Nc1cccc([C@@H](CN2CCCC2)N(C)C(=O)Cc2ccc(Cl)c(Cl)c2)c1 :: Satisfied
COCCOCCOCCO[C@H]1CCN(C[C@H](c2ccccc2)N(C)C(=O)Cc2ccc(Cl)c(Cl)c2)C1.Cl :: Satisfied
COCCS(=O)(=O)Nc1cccc([C@@H](CN2CCCC2)N(C)C(=O)Cc2ccc(Cl)c(Cl)c2)c1 :: Satisfied
